// provenance: patent US8716293B2

Human (% TO) 60 min for assorted compounds
Tested on: cryopreserved hepatocytes of human subjects
procedure_summary: metabolic stability in human hepatocytes
Assay type: in vitro ADME
test_settings: 1 μM, 60 min incubation, percentage turnover
Could you give me the number in % TO? Just the number is fine.

Example cases with answers are listed next.
CC(C)N1C[C@H](C)n2c(c(O)c3c(=O)n4nc(c32)N(C)S(=O)(=O)CCCCCOc2cc(F)ccc2C4)C1=O
12
CCN1C[C@@H](C)n2c(c(O)c3c(=O)n(Cc4ccc(F)c(Cl)c4)nc(N4CCN(C)S4(=O)=O)c32)C1=O [Compound 54r, reference compound]
23
CC(C)N1C[C@H](C)n2c(c(O)c3c(=O)n4nc(c32)N(C)S(=O)(=O)CCCCOc2cc(F)ccc2C4)C1=O
36
CCN1C[C@H](C)n2c(c(O)c3c(=O)n4nc(c32)N(C)S(=O)(=O)CCCCOc2cc(F)ccc2C4)C1=O
31
CCN1C[C@H](C)n2c(c(O)c3c(=O)n4nc(c32)N2CCN(CC2)C(=O)CCCOc2cc(F)ccc2C4)C1=O
43
CCN1C[C@H](C)n2c(c(O)c3c(=O)n4nc(c32)N(C)S(=O)(=O)CCCCOCc2cc(F)ccc2C4)C1=O
72
CCN1C[C@H](C)n2c(c(O)c3c(=O)n(Cc4ccc(F)cc4)nc(N(C)S(C)(=O)=O)c32)C1=O [Compound 53r, reference compound]
84
CCN1C[C@H](C)n2c(c(O)c3c(=O)n(Cc4ccc(F)c(Cl)c4)nc(C(=O)NC)c32)C1=O [Compound 52r, reference compound]
44

Would you kindly look at the next entry?
Please look at this compound and report its Human (% TO) 60 min: `CCN1C[C@H](C)n2c(c(O)c3c(=O)n4nc(c32)N(C)S(=O)(=O)CCCCCOc2cc(F)ccc2C4)C1=O`
38
